# EXPERIMENTAL_SYSTEM: HA-tagged PA of FluB (Influenza B virus, UniProt Q9QLI9)
# Construct: upstream of the initiation codon and antisense primers with a deleted stop codon; made in house; host or cells: human 293T cells, transiently transfected; unpurified cell lysate
# Sequence (Q9QLI9 whole entry): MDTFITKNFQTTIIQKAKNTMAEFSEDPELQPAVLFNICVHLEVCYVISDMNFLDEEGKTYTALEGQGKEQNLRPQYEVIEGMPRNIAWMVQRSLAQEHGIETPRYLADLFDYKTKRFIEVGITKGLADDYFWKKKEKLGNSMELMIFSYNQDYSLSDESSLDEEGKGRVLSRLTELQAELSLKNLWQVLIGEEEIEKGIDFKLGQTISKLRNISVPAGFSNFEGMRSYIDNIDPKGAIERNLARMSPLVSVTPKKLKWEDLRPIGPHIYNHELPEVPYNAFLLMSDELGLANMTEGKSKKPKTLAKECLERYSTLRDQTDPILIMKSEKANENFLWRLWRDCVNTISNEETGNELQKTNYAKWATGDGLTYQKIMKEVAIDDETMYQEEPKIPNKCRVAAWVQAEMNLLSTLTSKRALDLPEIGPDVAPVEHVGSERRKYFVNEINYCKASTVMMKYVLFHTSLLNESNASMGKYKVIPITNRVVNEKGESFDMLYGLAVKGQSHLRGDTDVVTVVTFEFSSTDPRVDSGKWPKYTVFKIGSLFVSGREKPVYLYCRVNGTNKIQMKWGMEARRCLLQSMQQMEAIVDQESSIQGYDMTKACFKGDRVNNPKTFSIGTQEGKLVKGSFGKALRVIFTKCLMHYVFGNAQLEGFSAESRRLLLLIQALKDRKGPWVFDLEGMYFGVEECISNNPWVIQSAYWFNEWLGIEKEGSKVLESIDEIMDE
# ASSAY_DETAILS: biochemical
# Format: binding
Where no end group is shown, it is not given here.
MEASUREMENT_LABEL: IC50
Form entry: enter the amount, then its unit.

Please indicate IC50 recorded for MNINPYFLFIDVPIQ-NH2 [PB11-15 B]
0.045 µM

---

# EXPERIMENTAL_SYSTEM: HA-tagged PA of FluA (Influenza A virus, UniProt Q2VC91)
# ASSAY_DETAILS: biochemical
# Format: binding
Where no end group is shown, it is not given here.
MEASUREMENT_LABEL: pIC50
Field pIC50 (float): negative decimal logarithm of the concentration in molar.

Please indicate pIC50 recorded for MDVNPTLLFLK-NH2 [1–11]
6.05
